Every entry's value here was drawn from paper PMC9848286.

Can you tell me pIC50 for the items I'm about to list?
Protein target, amino acids: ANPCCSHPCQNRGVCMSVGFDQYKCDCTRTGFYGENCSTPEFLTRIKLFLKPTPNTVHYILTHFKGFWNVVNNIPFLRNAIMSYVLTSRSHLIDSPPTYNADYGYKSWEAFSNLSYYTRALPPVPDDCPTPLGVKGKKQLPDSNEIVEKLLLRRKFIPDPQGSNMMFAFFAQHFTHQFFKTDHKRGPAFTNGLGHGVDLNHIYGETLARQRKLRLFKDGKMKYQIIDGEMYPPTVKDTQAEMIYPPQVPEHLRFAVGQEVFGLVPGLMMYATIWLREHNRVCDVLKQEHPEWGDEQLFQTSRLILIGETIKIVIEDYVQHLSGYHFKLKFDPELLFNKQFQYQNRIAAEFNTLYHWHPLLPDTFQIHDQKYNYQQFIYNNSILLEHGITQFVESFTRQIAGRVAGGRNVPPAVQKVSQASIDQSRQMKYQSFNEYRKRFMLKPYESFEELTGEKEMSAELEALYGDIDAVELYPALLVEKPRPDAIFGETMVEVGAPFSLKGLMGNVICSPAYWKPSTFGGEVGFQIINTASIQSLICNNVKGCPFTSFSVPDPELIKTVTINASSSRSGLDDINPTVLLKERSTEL
Numbers only, as −log10 of the molar value.

Cc1c(NC(=O)CSc2nnc(-c3ccc([N+](=O)[O-])cc3)o2)c(=O)n(-c2ccccc2)n1C: 7.18

For every record below, what is its pIC50?
1. Cc1c(NC(=O)CSc2nc(-c3ccc(Cl)cc3)c(C#N)c(=O)[nH]2)c(=O)n(-c2ccccc2)n1C
2. COc1ccc(-c2nc(SCC(=O)Nc3c(C)n(C)n(-c4ccccc4)c3=O)[nH]c(=O)c2C#N)cc1
3. COc1ccc(NC(=O)Nc2nnc(SCC(=O)Nc3c(C)n(C)n(-c4ccccc4)c3=O)s2)cc1

1: 6.92; 2: 7.16; 3: 7.06

###

Can you tell me LogIC50 (best-fit value), COX-2 inhibition for the items I'm about to list?
testedTarget: COX-2 (Homo sapiens)
Sequence (P35354 18-604): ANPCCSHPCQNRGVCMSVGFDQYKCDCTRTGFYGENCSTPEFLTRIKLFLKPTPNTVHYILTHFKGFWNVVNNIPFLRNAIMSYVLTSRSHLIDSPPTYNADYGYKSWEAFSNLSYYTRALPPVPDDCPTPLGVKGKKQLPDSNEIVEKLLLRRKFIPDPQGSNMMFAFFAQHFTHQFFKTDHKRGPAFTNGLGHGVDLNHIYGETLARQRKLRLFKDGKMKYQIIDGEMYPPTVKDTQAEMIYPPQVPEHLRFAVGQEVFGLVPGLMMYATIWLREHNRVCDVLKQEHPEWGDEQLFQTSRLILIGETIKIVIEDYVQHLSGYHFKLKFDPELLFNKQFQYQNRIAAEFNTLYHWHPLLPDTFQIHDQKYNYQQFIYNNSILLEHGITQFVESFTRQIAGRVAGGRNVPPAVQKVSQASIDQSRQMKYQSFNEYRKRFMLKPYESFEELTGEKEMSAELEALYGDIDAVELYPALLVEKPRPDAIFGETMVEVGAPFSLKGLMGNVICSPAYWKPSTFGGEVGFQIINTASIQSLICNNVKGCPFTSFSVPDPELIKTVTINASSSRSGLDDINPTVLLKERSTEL
protocolDescription: In vitro COX-2 inhibition, colorimetric screening assay kit
setupConditions: supplementary dose-response curve

Solved cases (6 shown):
Cc1c(NC(=O)CSc2nc(-c3ccc(Cl)cc3)c(C#N)c(=O)[nH]2)c(=O)n(-c2ccccc2)n1C: 2.079 Log (nM)
Cc1c(NC(=O)CSc2nnc(NC(=O)Nc3ccc(Cl)cc3)s2)c(=O)n(-c2ccccc2)n1C: 2.228 Log (nM)
Cc1c(NC(=O)CSc2nnc(-c3ccc([N+](=O)[O-])cc3)o2)c(=O)n(-c2ccccc2)n1C: 1.817 Log (nM)
Cc1c(NC(=O)CSc2nnc(NC(=O)Nc3ccccc3)s2)c(=O)n(-c2ccccc2)n1C: 2.190 Log (nM)
Cc1ccc(NC(=O)Nc2nnc(SCC(=O)Nc3c(C)n(C)n(-c4ccccc4)c3=O)s2)cc1: 2.016 Log (nM)
COc1ccc(NC(=O)Nc2nnc(SCC(=O)Nc3c(C)n(C)n(-c4ccccc4)c3=O)s2)cc1: 1.935 Log (nM)

For every record below, what is its LogIC50 (best-fit value), COX-2 inhibition?
1. Cc1ccc(-c2nnc(SCC(=O)Nc3c(C)n(C)n(-c4ccccc4)c3=O)o2)cc1
2. Cc1c(NC(=O)CSc2nnc(-c3ccc(Br)cc3)o2)c(=O)n(-c2ccccc2)n1C

1. 1.939 Log (nM)
2. 1.844 Log (nM)
